Please respond with reported GI50 for every item in the list.
Tested on: SNB-78
METHOD_SUMMARY: NCI tumour cell line growth inhibition, 48 h
The source made the active and inactive calls. No stated cut-off is given here; in the data, active = GI50 up to about 1.1 µM and inactive = higher.

According to the records, this molecule CCCCC1(C(NC(=O)c2ccccc2Cl)c2ccncc2)C(=O)N(c2ccccc2)N(c2ccccc2)C1=O (configuration not stated) displays GI50 of 56.8 µM (inactive)

According to the records, this molecule O=C(O)C(Br)Cc1ccc2c(c1)OCO2 (configuration not stated) displays GI50 of > 100 µM (inactive)

According to the records, this molecule CCCN(CCC)C1=Nc2ccccc2-n2cnnc2C1 displays GI50 of > 100 µM (inactive)

According to the records, this molecule O=C(/N=C(/Nc1ccccc1)SCCS/C(=N\C(=O)c1ccccc1)Nc1ccccc1)c1ccccc1 displays GI50 of > 100 µM (inactive)

According to the records, this molecule Oc1cc(-c2ccccc2)nc2cc(Cl)ccc12 displays GI50 of 3.34 µM (inactive)

According to the records, this molecule CC(C)CS(=O)(=O)/C(=C(\c1ccc(Br)cc1)S(=O)(=O)CC(C)C)c1ccc(Br)cc1 displays GI50 of 97.7 µM (inactive)

According to the records, this molecule CC1[C@@]2(O[C@@H]3C=C4C5CCC6Cc7nc8c(nc7C[C@@]6(C)C5C[C@H](O)[C@@]4(C)[C@]13O)CC1CCc3c(cc4c5c3C(O)C[C@H]5[C@@H](C)C3(O4)OC(C)(C)CC3O)[C@]1(C)C8)O[C@@](C)(CO)C[C@@H]2O (some centres not stated) displays GI50 of 0.183 µM (active)

According to the records, this molecule COc1ccc(/C=C2\CCC(CCN(C)C)(C3=CCCC3)C2=O)cc1Br (configuration not stated) displays GI50 of 9.02 µM (inactive)

According to the records, this molecule CCOc1ccc(NCC2CC/C(=C\c3ccccc3OC)C2=O)cc1 (configuration not stated) displays GI50 of 16.5 µM (inactive)

According to the records, this molecule COC(=O)N/N=C/c1oc(-c2ccccc2)c(-c2ccccc2)c1[N+](=O)[O-] displays GI50 of > 100 µM (inactive)

According to the records, this molecule CC1CC2C3CCC4=CC(=O)C=CC4(C)C3(F)C(O)CC2(C)C1(O)C(=O)COP(=O)(O)O (configuration not stated) displays GI50 of > 100 µM (inactive)

According to the records, this molecule COc1ccc(C(c2c(O)c3ccccc3n(-c3ccccc3)c2=O)c2c(O)c3ccccc3n(-c3ccccc3)c2=O)cc1 displays GI50 of > 100 µM (inactive)

According to the records, this molecule O=C(/C=C/c1ccccc1)c1ccc(NCc2nc3ccccc3[nH]2)cc1 displays GI50 of 4.9 µM (inactive)

According to the records, this molecule CC(=O)Nc1ccc(C(=O)N2N=C(C)/C(=C/c3ccc(O)cc3)C2=O)cc1 displays GI50 of > 100 µM (inactive)

According to the records, this molecule CC(=O)Oc1ccc(O)c2c1CCCC2 displays GI50 of 19.8 µM (inactive)

According to the records, this molecule Cc1cc2c(CC(=O)O)n[nH]c2c(C(=O)O)c1C displays GI50 of > 100 µM (inactive)

According to the records, this molecule Nc1ccn(C2OC(CO)C(O)C2O)c(=O)c1 (configuration not stated) displays GI50 of > 625 µM (inactive)

* * *

System: T47D
METHOD_SUMMARY: NCI tumour cell line growth inhibition, 48 h
Activity calls are given as the source filed them. Cut-off read from the data, not from the text of the source: active = GI50 up to about 1.1 µM and inactive = higher.
ENDPOINT_NAME: GI50

Reading of GI50 for Nc1nc(N)c2ncn(CC3CCC(CO)C3)c2n1 (stereo not given) with T47D: > 100 µM (inactive)

Reading of GI50 for N=c1oc2ccccc2cc1C(=O)NC12CC3CC(CC(C3)C1)C2 with T47D: 4.52 µM (inactive)

Reading of GI50 for Cc1c(/C=N/NC(=S)Nc2cccc(Cl)c2)c(=O)n(-c2ccccc2)n1C with T47D: 30.4 µM (inactive)

Reading of GI50 for COC(=O)C[C@@H]1C(C)(C)[C@@H]2O[C@@]34C[C@@H]2C(=O)[C@]1(C)[C@H]3CC[C@@]1(C)[C@H](c2ccoc2)OC(=O)C[C@]14O with T47D: > 100 µM (inactive)

Reading of GI50 for CCOC(=O)C(NC(=O)CC(C)C)(Nc1ccc(C(F)(F)F)cc1)C(F)(F)F (stereo not given) with T47D: 18.4 µM (inactive)

* * *

System: Malme-3M
METHOD_SUMMARY: NCI tumour cell line growth inhibition, 48 h
The source made the active and inactive calls. Rule as the data show it: active = GI50 up to about 1.1 µM and inactive = higher.
Field 'call' accepts active, inactive

Outcome? O=C1/C(=C/c2ccc(O)cc2)CCCC1CN1CCCCC1 (stereo not drawn)
inactive

Outcome? CCCCCCCCc1cc2c(O)c(c1)Cc1cc(CCCCCCCC)cc(c1O)Cc1cc(CCCCCCCC)cc(c1O)Cc1cc(CCCCCCCC)cc(c1O)Cc1cc(CCCCCCCC)cc(c1O)Cc1cc(CCCCCCCC)cc(c1O)C2
inactive

Outcome? Cc1ccc(S(=O)(=O)N2CCN(S(=O)(=O)c3ccc(C)cc3)CCN(S(=O)(=O)c3ccc(C)cc3)Cc3cc(Br)c(Br)cc3CN(S(=O)(=O)c3ccc(C)cc3)CC2)cc1
inactive

Outcome? C/C(=N\Nc1nc2ccccc2o1)c1ccncn1
active

Outcome? CC(=O)C1=C(C)NC2C=CC=CN12 (stereo not drawn)
inactive

Outcome? OCCc1ccsc1-c1sc(-c2cc(CCO)c(-c3sccc3CCO)s2)cc1CCO
inactive

Outcome? COc1ccccc1NCc1nnc(CCCCCCCCc2nnc(CNc3ccccc3OC)o2)o1
inactive

Outcome? CC[N+]1(C)CCC(O)(c2ccccc2)C(C(=O)c2ccccc2)C1 (stereo not drawn)
inactive

Outcome? COc1ccc(C2=NN(C(=O)c3ccc(Cl)cc3)C(O)(c3cc(F)c(Cl)cc3Cl)C2)cc1 (stereo not drawn)
inactive

Outcome? CCc1cccc(C(C)C)c1C1C(=O)C(=O)N(c2nc3ccccc3s2)C(=O)C1=O
inactive

Outcome? O=S(=O)(O)c1ccc2c(/N=N\c3ccc(F)cc3)c(O)c(S(=O)(=O)O)cc2c1
inactive

Outcome? COc1ccc(C(c2c(O)c3ccccc3n(-c3ccccc3)c2=O)c2c(O)c3ccccc3n(-c3ccccc3)c2=O)cc1
inactive

Outcome? COc1cccc(N2C(=O)C3CC(CC(C)(C)C)c4c([nH]c5ccccc45)C3C2=O)c1 (stereo not drawn)
inactive

Outcome? COc1cc2c(cc1OCc1ccccc1)NC(=O)[C@@H]1C[C@@H](O)CN1C2=O
inactive

Outcome? CCCCC1(C(NC(=O)c2ccccc2Cl)c2ccncc2)C(=O)N(c2ccccc2)N(c2ccccc2)C1=O (stereo not drawn)
inactive

Outcome? O=C1C(=Cc2ccc(O)cc2)N=C(c2ccccc2)N1n1c(-c2ccccc2)nc2ccccc2c1=O
inactive

Outcome? Cc1nc2c(O)cc3c4c([nH]c3c2nc1C)C(=O)CCC4
inactive

Outcome? COc1cc(OC)cc(-c2nc3cc(F)ccc3s2)c1
inactive

Outcome? C/C=C/C=C/[C@H]1Cc2cc(O)cc(O)c2O1
inactive

Outcome? Cc1cc(S(=O)(=O)Nc2nc(N)n(-c3ccccn3)n2)c(S)cc1Cl
inactive

Outcome? COc1cnc2oc3ccc(O)cc3c2c1-c1ccccc1
inactive

Outcome? COC(=O)C1=CCS(=O)(=O)C1
inactive

Outcome? CC1=C(CO)C(=O)O[C@@H]([C@@H](C)[C@H]2CC[C@H]3[C@@H]4C[C@H]5O[C@]56[C@@H](O)C=CC(=O)[C@]6(C)[C@H]4CC[C@]23C)C1
active

Outcome? O=C1C=C(Nc2ccc(Br)cc2)c2ccccc2/C1=N/O
inactive

Outcome? CC(=O)NNc1nc(C)c(C(=O)/C=C/C=C/c2ccccc2)s1
inactive

Outcome? O=C(C#Cc1cnc(O)nc1O)c1ccccc1
inactive

Outcome? N#C[BH2-][n+]1cn(C2CC(OP(=O)(O)OCC3OC(n4cnc5c(N)ncnc54)CC3O)C(CO)O2)c2nc(N)[nH]c(=O)c21 (stereo not drawn)
inactive

Outcome? CO[C@H]1CC[C@]2(C)C3=CC[C@@]4(C)C(CC[C@@H]4C(C)CC[C@@H](C)C(C)C)C(=CCC2C1)O3 (stereo partly drawn)
inactive

Outcome? O=C(c1ccccc1)[C@H]1Nc2ccc(Cl)cc2[C@H]2c3ccccc3O[C@H]21
inactive

Outcome? C/N=C(N)/N=C(\N)Nc1cc2ccccc2c2ccccc12
inactive

Outcome? COc1ccc(-c2c3c(nc4[nH]c(=S)[nH]c(=S)c24)CCCC3)cc1OC
inactive

Outcome? Cc1cc2c(cc1-c1cc3c(cc1C)C(C(C)C)=C(O)C(=O)/C3=C\NCC1CCCN3CCCCC13)/C(=C/NCC1CCCN3CCCCC13)C(=O)C(O)=C2C(C)C (stereo not drawn)
inactive

Outcome? CC(=O)C1=CN=C2C(=O)N(c3ccccc3)N(C)C12C (stereo not drawn)
inactive

Outcome? Clc1cc(OC2C3CC4CC(C3)CC2C4)nc(Cl)n1 (stereo not drawn)
inactive

Outcome? Cc1ccc(F)c2c(=O)cc(-c3ccccc3)[nH]c12
inactive

Outcome? COC(=O)CCC(=O)NC1=C(Nc2ccccc2)C(=O)c2ccccc2C1=O
inactive

Outcome? Cc1cccc(NC(N)=S)c1
inactive

Outcome? Cc1cc(=O)n2nc(CSc3nnc(Sc4cc(O)ccc4O)s3)sc2n1
inactive
